Molecular target: HLA-B*46:01
Assay: IEDB peptide-MHC binding, purified MHC/direct/fluorescence; filed as Kd, often an IC50 or EC50 that approximates it; bounds were set here for any values at or beyond the usual limits of such assays
Details: source organism: Escherichia coli O157:H7
Readout: Kd

# Sequence Content, Data Value
records = [
    ("YQAFRTKVH", "≥ 20 µM"),
]

###

Target: HLA-B*51:01
Assay: IEDB peptide-MHC binding, purified MHC/competitive/fluorescence; filed as Kd, often an IC50 or EC50 that approximates it; bounds were set here for any values at or beyond the usual limits of such assays
Conditions: source organism: Entamoeba histolytica HM-1:IMSS
pKd: −log10 of the molar value.

# Sequence Content, pKd
rows = [
    ("NPAACSYMV", "≤ 4.70"),
]

Measured values drawn from the Immune Epitope Database (IEDB) for this set.
